Tested on: MDA-MB-435 melanoma
Test: NCI-60 one-dose screen, 48 h
Details: 10 µM unless noted
About 83,000 compounds went through this panel and 20% of them were active in at least one assay; those are over-represented in the sample as a whole. The source made the active and inactive calls. The calls were made as follows: active = growth percent below 10; inactive = the rest.
Possible outcomes: label 1 (active), label 0 (inactive)

1) COc1ccc(Cc2cc(-c3ccccc3C)n[nH]c2=O)cc1 ... label 0
2) C[C@@H](Oc1cc(-c2cnn(C3CCNCC3)c2)cnc1N)c1c(Cl)ccc(F)c1Cl ... label 1
3) O=C1C=CC2(NN=C(c3ccccc3)N2c2ccccc2)c2cccc(O)c21 (centres undefined) ... label 1
4) Cc1nn(-c2nc3ccccc3[nH]2)c2c1C(c1ccc(O)cc1)CC(=O)N2 (centres undefined) ... label 0
5) NC(=O)c1n[nH]n2c1nc(=O)c1c3c(sc12)CCCC3 ... label 0
6) CCc1nc(C(N)=O)c(Nc2ccc(N3CCC(N4CCN(C)CC4)CC3)c(OC)c2)nc1NC1CCOCC1 ... label 0
7) O=C1OCC2=C1C(c1cccc(F)c1)c1cc3c(cc1N2CCO)OCCO3 (centres undefined) ... label 1
8) CS(=O)(=O)N1CCc2c(-c3cnc(N)nc3)nc(N3CCOCC3)nc21 ... label 1
9) COC(=O)Nc1nc2ccc(C(=O)c3ccc(N(C)C4COC4)cc3)cc2[nH]1 ... label 1
10) COc1cc2nccc(Oc3ccc(NC(=O)C4(C(=O)Nc5ccc(F)cc5)CC4)cc3)c2cc1OC ... label 1
11) Cn1c(=O)c(F)c(Nc2ccc(I)cc2F)c2c(=O)n(C[C@@H](O)CO)cnc21 ... label 0
12) Nc1nc(N)c2cc(CNc3ccc(C(=O)NC(CC(=O)O)C(=O)O)cc3)ccc2n1 (centres undefined) ... label 0
13) COC(=O)CC[C@@H](C)[C@H]1CC[C@H]2C3CC[C@@H]4C[C@@H]5CC[C@]4(C)[C@@]3(O5)[C@H](Br)[C@@H](Br)[C@]12C (some centres undefined) ... label 0
14) C=CC(=O)Nc1cc2c(Nc3ccc(F)c(Cl)c3)ncnc2cc1C#CC(C)(C)N1CCN(C)CC1 ... label 1
15) CC(C)C1CCC(C)C(C2(C#N)C(N)=NC(N)=C2C#N)C1=O (centres undefined) ... label 0
16) Cc1cc(N2CCOCC2)nc(N(CCNc2ccnc3cc(Cl)ccc23)Cc2cccs2)n1 ... label 1
17) CNC(=O)c1cc(Oc2cccc3nc(Nc4ccc(Cl)c(F)c4)ccc23)ccn1 ... label 0
18) C[C@@]1(C(=O)Nc2ccc(F)nc2)CCCN1c1nc(Nc2cc(C3CC3)[nH]n2)c2cccn2n1 ... label 0
19) O=C1CSC(c2c(F)cccc2Cl)N1NC(=O)C(O)(c1ccccc1)c1ccccc1 (centres undefined) ... label 0

---

System: UO-31 renal
Assay: NCI-60 one-dose screen, 48 h
Settings: 10 µM unless noted
This is part of a sample that, as a whole, favours compounds with a hit. Of some 83,000 tested, about 20% had one in any assay. The source made the active and inactive calls. Rule for the calls: active = growth percent below 10; inactive = the rest.
Labels: active, inactive

1) Cc1cc2c(-c3nc4ccccn4c3N)c(O)c(O)cc2c(O)c1-c1c(C)cc2c(-c3nc4ccccn4c3N)c(O)c(O)cc2c1O ... inactive
2) Nc1c(C(=O)c2ccccc2)sc2nc(-c3cccs3)ccc12 ... inactive
3) COC(=O)C1CCc2sc3ncnc(Nc4cn[nH]c4C(=O)Nc4ccc(CN5CCN(C)CC5)cc4)c3c21 (centres undefined) ... active
4) N#CC[C@H](C1CCCC1)n1cc(-c2ncnc3[nH]ccc23)cn1 ... inactive
5) CCCCCCCC(=O)SCC/C=C/[C@@H]1CC(=O)NCc2cccc(n2)C2=N[C@@](C)(CS2)C(=O)N[C@@H](C(C)C)C(=O)O1 ... active
6) CCN(CC)CCNC(=O)c1c(C)[nH]c(/C=C2\C(=O)Nc3ccc(F)cc32)c1C ... active
7) CC1(C=O)NC(=O)NC1=O (centres undefined) ... inactive
8) CNc1ncc2cc(-c3cc(NC(=O)NCCC(C)(C)C)c(F)cc3C)c(C)nc2n1 ... active
9) O=C(CNc1nnc(-c2ccc(Cl)cc2)o1)Nc1ccc(-c2nc3ccccc3s2)cc1 ... inactive

---

System: SF-539 CNS
Test: NCI-60 one-dose screen, 48 h (100 = growth as untreated, 0 = no growth, -100 = all killed)
Details: 10 µM unless noted
Compounds without any hit were thinned out: in the full panel of roughly 83,000, 20% have a hit.
# growth per entry
ASSAY_ENDPOINT: growth (%)

1) CCN(CC)CCN1C(=O)c2cccc3c(-c4ccc5c(c4)ncn5C4CCCCC4)ccc(c23)C1=O ... -76.2
2) CCN(CC)Cc1cc(Nc2cc(C(F)(F)F)c(C#N)c3nc4ccccc4n23)ccc1O ... 5.91
3) CC(=O)CC1CCCC1c1ccc2ccccc2c1 (stereo not given) ... 95.8
4) O=C(Nc1ccc(N=Nc2ccccc2)cc1)c1cccc2ccccc12 ... 69
5) Cn1ncc(Cl)c1-c1cc(C(=O)N[C@H](CN)Cc2ccc(F)c(F)c2)oc1Cl ... -75.1
6) CCN1CCN(Cc2ccc(-c3cc4c(N[C@H](C)c5ccccc5)ncnc4[nH]3)cc2)CC1 ... 60.5
7) COc1cc(Nc2c(C#N)cnc3cc(OCCCN4CCN(C)CC4)c(OC)cc23)c(Cl)cc1Cl ... 94.4
8) COC1CCC(N2C(=O)CNc3ncc(-c4ccc(C(C)(C)O)nc4)nc32)CC1 (stereo not given) ... -21.9
9) Cc1nc(N)sc1-c1ccnc(Nc2ccc(N3CCOCC3)cc2)n1 ... 25.6
10) Cn1cnc2c(F)c(Nc3ccc(Br)cc3Cl)c(C(=O)NOCCO)cc21 ... 69

---

Tested on: HS 578T breast
Assay: NCI-60 one-dose screen, 48 h
Details: 10 µM
About 83,000 compounds went through this panel and 20% of them were active in at least one assay; those are over-represented in the sample as a whole. The source made the active and inactive calls. How the source made its calls: active means growth percent below 10; inactive means the rest.
Labels: 1 for active, 0 for inactive

1) CCCCCCCCCCCC[n+]1ccccc1 ... 1
2) O=C(Cn1ccc2ccccc21)Nc1ccc(-c2nc3ccccc3s2)cc1 ... 0
3) Clc1ccc2c(NCCNc3nc(N4CCCC4)nc4ccccc34)ccnc2c1 ... 0
4) Cc1ccsc1C(NC(=O)c1ccccc1)c1cc(Cl)c2cccnc2c1O (stereo unspecified) ... 0
5) O=C(CNc1nnc(-c2ccc(Cl)cc2)o1)Nc1ccc(-c2nc3ccccc3s2)cc1 ... 0
6) COc1ccc2c(CCCC(c3ccccc3)c3ccccc3)c3[n+](cc2c1OC)CCc1cc2c(cc1-3)OCO2 ... 1
7) N#CC1(C#N)C(c2cccs2)NC(c2cccs2)C1(C#N)C#N (stereo unspecified) ... 0
8) COc1ccc(OC)c(NC2=C(SCCc3ccccc3)C(=O)c3ccccc3C2=O)c1 ... 0
9) CC(C)=CCc1cc2c(cc1O)C1=C(C(=O)C3=C(NCCS3(=O)=O)C1=O)C(C=C(C)C)O2 (stereo unspecified) ... 0
10) CN1CCN(CC(=O)Nc2ccc(-c3nc4ccccc4s3)cc2)CC1 ... 0
11) Cc1ccccc1Nc1nc2nonc2nc1Nc1cccc(C)c1C ... 0

---

Entries and their growth values follow.
Test system: NCI/ADR-RES ovarian
Assay: NCI-60 one-dose screen, 48 h (100 = growth as untreated, 0 = no growth, -100 = all killed)
Conditions: 10 µM unless noted
Compounds without any hit were thinned out: in the full panel of roughly 83,000, 20% have a hit.
ASSAY_ENDPOINT: growth (%)

1. Cc1ccc(-c2cc3c(SCC(=O)Nc4cc(C(F)(F)F)ccc4Cl)nccn3n2)cc1 ... 42.5
2. CO[C@@H](C)Cn1c(=O)n(C)c2cnc3ccc(-c4cncc(C(C)(C)O)c4)cc3c21 ... -1.12
3. CCCCCCCCCNCCCCCCCCC ... 68.3
4. CCNC(=O)Nc1nc2ccc(Oc3ccnc(C(=O)NC)c3)cc2s1 ... 73.3
5. CC(C)Nc1cc(-c2c[nH]c(C(=O)N[C@H](CO)c3cccc(Cl)c3)c2)c(Cl)cn1 ... 47.9
6. Cc1cc2c(-c3nc4ccccn4c3N)c(O)c(O)cc2c(O)c1-c1c(C)cc2c(-c3nc4ccccn4c3N)c(O)c(O)cc2c1O ... 26.4
7. COC(=O)[C@@H](NC(=O)[C@@H](OC)[C@@H]1Cc2cc3cc(OC4CC(OC5CC(O)C(O)C(C)O5)C(O)C(C)O4)c(C)c(O)c3c(O)c2C(=O)[C@H]1OC1CC(OC2CC(OC3CC(C)(O)C(O)C(C)O3)C(O)C(C)O2)C(O)C(C)O1)C(C)C (stereo partly drawn) ... 69.6
8. Cc1ccc(NC(=O)c2ccc(CN3CC[C@H](N(C)C)C3)c(C(F)(F)F)c2)cc1Nc1nccc(-c2cncnc2)n1 ... 24.9
